target-system: OXA-48 (Klebsiella pneumoniae)
Construct: Genes encoding OXA-48 (residues 23–265) and VIM-2 (residues 27–266) were custom-synthesized; made in house
Sequence (Q6XEC0 23-265 limits assumed): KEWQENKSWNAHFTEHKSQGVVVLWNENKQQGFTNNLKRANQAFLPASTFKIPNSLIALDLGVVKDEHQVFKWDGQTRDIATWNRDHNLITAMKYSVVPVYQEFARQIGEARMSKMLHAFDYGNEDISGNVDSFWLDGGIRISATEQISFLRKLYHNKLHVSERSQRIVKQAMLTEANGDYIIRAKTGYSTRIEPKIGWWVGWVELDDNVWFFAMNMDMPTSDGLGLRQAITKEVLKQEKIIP
measurement-description: β-lactamase inhibition, nitrocefin hydrolysis
Type: biochemical
reported-conditions: nitrocefin substrate; read-out: β-Lactamases, IC50 OXA-48
pIC50: −log10 of the molar value.
Quick rule: pIC50 of at least 5 means YES, below that means NO.

| molecule | class |
| --- | --- |
| O=c1c(OCCO)c(-c2ccc(F)c(F)c2)oc2cc(O)cc(O)c12 | NO |
| O=c1c(OCCC2CCCCC2)c(-c2ccc(F)c(F)c2)oc2cc(O)cc(O)c12 | YES |
| CN1CCCC1CCOc1c(-c2ccc(F)c(F)c2)oc2cc(O)cc(O)c2c1=O (stereo not drawn) | NO |
| O=c1c(OCCOCCO)c(-c2ccc(F)c(F)c2)oc2cc(O)cc(O)c12 | NO |
| CC(C)c1ccc(COc2c(-c3ccc(F)c(F)c3)oc3cc(O)cc(O)c3c2=O)cc1 | YES |
| CC(C)(C)CCOc1c(-c2ccc(F)c(F)c2)oc2cc(O)cc(O)c2c1=O | NO |
| CC(C)CCOc1c(-c2ccc(F)c(F)c2)oc2cc(O)cc(O)c2c1=O | NO |
| CC(C)(C)C(=O)OCOc1c(-c2ccc(F)c(F)c2)oc2cc(O)cc(O)c2c1=O | NO |
| CN(C)CCOc1c(-c2ccc(F)c(F)c2)oc2cc(O)cc(O)c2c1=O | NO |
| CN1CCN(CCOc2c(-c3ccc(F)c(F)c3)oc3cc(O)cc(O)c3c2=O)CC1 | NO |
| NCCOCCOc1c(-c2ccc(F)c(F)c2)oc2cc(O)cc(O)c2c1=O | NO |

====

target-system: OXA-48 (Klebsiella pneumoniae)
Construct: Genes encoding OXA-48 (residues 23–265) and VIM-2 (residues 27–266) were custom-synthesized; made in house
measurement-description: β-lactamase inhibition, nitrocefin hydrolysis
Type: biochemical
reported-conditions: nitrocefin substrate; read-out: β-Lactamases, IC50 OXA-48

| compound | qualifying-sign | IC50 [µM] |
| --- | --- | --- |
| O=c1c(OCCN2CCCC2)c(-c2ccc(F)c(F)c2)oc2cc(O)cc(O)c12 [Compound 18] | > | 100 |
| O=c1c(OCCN2CCNCC2)c(-c2ccc(F)c(F)c2)oc2cc(O)cc(O)c12 [Compound 17] | > | 100 |
| CC(C)OC(=O)OCOc1c(-c2ccc(F)c(F)c2)oc2cc(O)cc(O)c2c1=O [Compound 5] | = | 42.7 |
| O=c1c(OCCOCCOCCO)c(-c2ccc(F)c(F)c2)oc2cc(O)cc(O)c12 [Compound 10] | > | 100 |
| CC(C)(C)CC(=O)Oc1c(-c2ccc(F)c(F)c2)oc2cc(O)cc(O)c2c1=O [Compound 3] | = | 21.2 |
| O=c1c(OCCCC2CCCC2)c(-c2ccc(F)c(F)c2)oc2cc(O)cc(O)c12 [Compound 29] | = | 5.5 |
| CC(C)(C)c1ccc(COc2c(-c3ccc(F)c(F)c3)oc3cc(O)cc(O)c3c2=O)cc1 [Compound 6] | = | 37.8 |
| O=c1c(OCCN2CCOCC2)c(-c2ccc(F)c(F)c2)oc2cc(O)cc(O)c12 [Compound 20] | > | 100 |
| O=c1c(OCCN2CCCCC2)c(-c2ccc(F)c(F)c2)oc2cc(O)cc(O)c12 [Compound 19] | > | 100 |
| O=c1c(OCCC(F)(F)F)c(-c2ccc(F)c(F)c2)oc2cc(O)cc(O)c12 [Compound 22] | = | 39.8 |
| O=c1c(OCCc2cccs2)c(-c2ccc(F)c(F)c2)oc2cc(O)cc(O)c12 [Compound 12] | > | 100 |
| O=c1c(OCC2CCCC2)c(-c2ccc(F)c(F)c2)oc2cc(O)cc(O)c12 [Compound 28] | = | 9.2 |
| O=c1c(OCCC2CC2)c(-c2ccc(F)c(F)c2)oc2cc(O)cc(O)c12 [Compound 25] | = | 11.4 |
| O=c1c(OCCC2CCOCC2)c(-c2ccc(F)c(F)c2)oc2cc(O)cc(O)c12 [Compound 30] | = | 35.9 |
| C[N+](C)(CCOc1c(-c2ccc(F)c(F)c2)oc2cc(O)cc(O)c2c1=O)CC(=O)[O-] [Compound 15] | > | 100 |
| O=c1c(O)c(-c2ccc(F)c(F)c2)oc2cc(O)cc(O)c12 [Compound 1, 3′,4′-difluoroquercetin] | > | 100 |
| O=c1c(OCCC2CCNCC2)c(-c2ccc(F)c(F)c2)oc2cc(O)cc(O)c12 [Compound 31] | > | 100 |
